tested on: papillary muscle; experiment: isolated guinea pig atria and papillary muscle procedure: papillary muscle force; assay type: cell-based; details: Cavia porcellus; papillary muscle force; dose 1 µg/ml; read-out: % Change from Control PMF
Record label 1 whenever activation at 1 µg/mL is at 50% or higher; record label 0 when lower.

Qu. Determine whether measured activation at 1 µg/mL meets or exceeds 50% for Cc1ncn(-c2nccc3[nH]c(=O)ccc23)n1 [Example 41]
Ans. label 0

Qu. Determine whether measured activation at 1 µg/mL meets or exceeds 50% for Cc1cc2[nH]c(=O)ccc2c(Br)n1 [Example 46]
Ans. label 0

Qu. Determine whether measured activation at 1 µg/mL meets or exceeds 50% for Cc1cn(-c2nc(C)cc3[nH]c(=O)ccc23)cn1 [Example 47]
Ans. label 0

Qu. Determine whether measured activation at 1 µg/mL meets or exceeds 50% for Cc1cn(-c2nccc3[nH]c(=O)ccc23)cn1 [Example 7]
Ans. label 1

Qu. Determine whether measured activation at 1 µg/mL meets or exceeds 50% for O=c1ccc2c(-n3cnc(CO)c3)nccc2[nH]1 [Example 42]
Ans. label 0

Qu. Determine whether measured activation at 1 µg/mL meets or exceeds 50% for O=c1ccc2c(-n3cnc(Br)c3)nccc2[nH]1 [Example 43]
Ans. label 0

###

test system: guinea pig atria; assay: isolated guinea pig atria and papillary muscle procedure: right atrial force; assay type: cell-based; settings: Cavia porcellus, dose 1 µg/ml, read-out: % Change from Control RAF
endpoint: activation at 1 µg/mL (%)
Kindly answer with a numeric value in %, unit omitted.

Qu. Reported activation at 1 µg/mL for Cc1cn(-c2nc(C)cc3[nH]c(=O)ccc23)cn1 : what is it?
Ans. 37

Qu. Reported activation at 1 µg/mL for O=c1ccc2c(-n3cnc(CO)c3)nccc2[nH]1 : what is it?
Ans. -2

Qu. Reported activation at 1 µg/mL for Cc1cc2[nH]c(=O)ccc2c(Br)n1 : what is it?
Ans. 41

Qu. Reported activation at 1 µg/mL for Cc1ncn(-c2nccc3[nH]c(=O)ccc23)n1 : what is it?
Ans. 29

Qu. Reported activation at 1 µg/mL for Cc1cn(-c2nccc3[nH]c(=O)ccc23)cn1 : what is it?
Ans. 49

Qu. Reported activation at 1 µg/mL for O=c1ccc2c(-n3cnc(Br)c3)nccc2[nH]1 : what is it?
Ans. 35

###

system: papillary muscle; test: isolated guinea pig atria and papillary muscle procedure: papillary muscle force; type: cell-based; details: Cavia porcellus; papillary muscle force; dose 3 µg/ml; read-out: % Change from Control PMF
Record condition met whenever activation at 3 µg/mL is at 60% or higher; record condition not met when lower.

Qu. Determine whether measured activation at 3 µg/mL meets or exceeds 60% for O=c1ccc2c(-n3ccnc3)nccc2[nH]1 [Example 6]
Ans. condition not met

Qu. Determine whether measured activation at 3 µg/mL meets or exceeds 60% for Cc1ncn(-c2nccc3[nH]c(=O)ccc23)c1C [Example 12]
Ans. condition not met

Qu. Determine whether measured activation at 3 µg/mL meets or exceeds 60% for O=c1ccc2c(-n3cnc(CO)c3)nccc2[nH]1 [Example 42]
Ans. condition not met

Qu. Determine whether measured activation at 3 µg/mL meets or exceeds 60% for Cc1cn(-c2nccc3[nH]c(=O)ccc23)cn1 [Example 7]
Ans. condition met

Qu. Determine whether measured activation at 3 µg/mL meets or exceeds 60% for Cc1ccn(-c2nccc3[nH]c(=O)ccc23)n1 [Example 40]
Ans. condition not met

Qu. Determine whether measured activation at 3 µg/mL meets or exceeds 60% for O=c1ccc2c(Br)nccc2[nH]1 [Example 4, 5-bromo-1,6-naphthyridin-2(1H)-one]
Ans. condition met

Qu. Determine whether measured activation at 3 µg/mL meets or exceeds 60% for O=c1ccc2c(-n3cncn3)nccc2[nH]1 [Example 11]
Ans. condition not met

Qu. Determine whether measured activation at 3 µg/mL meets or exceeds 60% for O=c1ccc2c(-n3cnc(Br)c3)nccc2[nH]1 [Example 43]
Ans. condition met

Qu. Determine whether measured activation at 3 µg/mL meets or exceeds 60% for Cc1cc2[nH]c(=O)ccc2c(Br)n1 [Example 46]
Ans. condition met

Qu. Determine whether measured activation at 3 µg/mL meets or exceeds 60% for Cc1ncn(-c2nccc3[nH]c(=O)ccc23)n1 [Example 41]
Ans. condition not met

Qu. Determine whether measured activation at 3 µg/mL meets or exceeds 60% for Cc1cn(-c2nc(C)cc3[nH]c(=O)ccc23)cn1 [Example 47]
Ans. condition not met

These entries and their values trace back to patent EP0189853A2.
